Measured sfGFP reporter fluorescence of individual entries
B1: library; numbered along this chain (parent)
chain: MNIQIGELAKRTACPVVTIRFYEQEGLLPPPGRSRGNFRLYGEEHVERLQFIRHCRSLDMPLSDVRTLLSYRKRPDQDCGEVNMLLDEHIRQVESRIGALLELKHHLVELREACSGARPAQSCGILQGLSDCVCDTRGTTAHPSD

- Variants of: B1
- experimentalProtocol: sfGFP reporter fluorescence (15 h) (µM FITC); higher = stronger transcriptional activation
- measurementSetup: library round: Round 0; ligand: 30 µM Zn
Just the number, please.

Would you mind telling me what sfGFP reporter fluorescence value was observed for D64K L107C G128M ?
4.87

Then what about the variant P61L ?
0.191

Then what about the variant E109Q ?
1.08

Then what about the variant K104E ?
0.635

Then what about the variant L28W ?
0.878

Then what about the variant R33V ?
0.0696

Then what about the variant C123Q ?
0.0546

Then what about the variant M60L K104V ?
3.17

Then what about the variant M60R ?
0.0619

Then what about the variant M60L P61N D64K G128I ?
3.77

Then what about the variant G128M ?
3.04

Then what about the variant L58F ?
0.261

Then what about the variant V16A ?
1.06

Then what about the variant E43H ?
0.629

Then what about the variant E43Q ?
1.16
